Here the recorded pKi is given for each entry.
Target: purified catalytic domain of recombinant human TACE (rhTACEc) (Homo sapiens, UniProt P78536, N452Q/S266A)
Construct: 6xHis (C); made in house; host or cells: baculovirus/Hi5 insect cells
Sequence (P78536 215-477 S266A/N452Q): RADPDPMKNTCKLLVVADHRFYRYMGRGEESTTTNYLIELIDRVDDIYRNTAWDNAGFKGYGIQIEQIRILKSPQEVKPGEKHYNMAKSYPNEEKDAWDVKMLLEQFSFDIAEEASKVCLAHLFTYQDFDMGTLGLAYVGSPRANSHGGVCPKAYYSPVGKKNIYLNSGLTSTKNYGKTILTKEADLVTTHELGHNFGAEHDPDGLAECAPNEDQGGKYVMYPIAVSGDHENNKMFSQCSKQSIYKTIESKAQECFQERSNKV
Assay: TACE kinetic assay: cleavage of internally quenched peptide substrate TNF-FRET 2 (Ki)
Type: biochemical
Conditions: TNF-FRET 2 substrate, read-out: Ki
pKi: −log10 of the molar value.
parameter: pKi

INSERT INTO results (compound, readout_number) VALUES
  ('COc1ccc2c(c1)C(=O)N(C[C@@]1(c3cc4c(ccc5sc(C)nc54)o3)NC(=O)NC1=O)C2', 10.15),
  ('COc1ccc2c(c1)C(=O)N(C[C@@]1(c3cc4nc(N5CCCNC5=O)ccc4o3)NC(=O)NC1=O)C2', 9.33),
  ('COc1ccc2c(c1)C(=O)N(C[C@@]1(c3cc4cnc(Cl)cc4o3)NC(=O)NC1=O)C2', 9.36),
  ('COc1cc2c(cc1F)CN(C[C@@]1(c3cc4cnccc4o3)NC(=O)NC1=O)C2=O', 8.76),
  ('CCOC(=O)c1c(O)nc(C)c2cc([C@]3(CN4Cc5ccc(OC)cc5C4=O)NC(=O)NC3=O)oc12', 8.88),
  ('CCN(CC)CCNC(=O)c1ccc2cc([C@]3(CN4Cc5ccc(OC)cc5C4=O)NC(=O)NC3=O)oc2c1', 9.10),
  ('COc1ccc2c(c1)C(=O)N(C[C@@]1(c3cc4cnc(NC5CC5)nc4o3)NC(=O)NC1=O)C2', 9.09),
  ('COc1ccc2c(c1Cl)C(=O)N(C[C@@]1(c3cc4ncccc4o3)NC(=O)NC1=O)C2', 8.96),
  ('COc1ccc2c(c1)C(=O)N(C[C@@]1(c3ccc(C(=O)O)cc3)NC(=O)NC1=O)C2', 8.50),
  ('COc1ccc2c(c1F)C(=O)N(C[C@@]1(c3cc4nc(Nc5cn[nH]c5)ccc4o3)NC(=O)NC1=O)C2', 9.22),
  ('COc1ccc2c(c1)C(=O)N(C[C@@]1(c3cc4cc5c(cc4o3)[C@@H](NC(=O)OC(C)(C)C)CC5)NC(=O)NC1=O)C2', 8.84),
  ('COc1ccc2c(c1OC)C(=O)N(C[C@@]1(c3cc4nc(C)c(Br)cc4o3)NC(=O)NC1=O)C2', 8.61),
  ('COc1ccc2c(c1F)C(=O)N(C[C@@]1(c3cc4nc(N)ccc4o3)NC(=O)NC1=O)C2', 9.47),
  ('COc1ccc2c(c1)C(=O)N(C[C@@]1(c3cc4cc(-c5ccc(N)nc5)c(F)cc4o3)NC(=O)NC1=O)C2', 9.29),
  ('COc1ccc2c(c1)C(=O)N(C[C@@]1(c3cc4cc(CNC5CCCCC5)ccc4o3)NC(=O)NC1=O)C2', 9.35),
  ('COc1ccc2c(c1)C(=O)N(C[C@@]1(c3cc4ccc(OC)cc4o3)NC(=O)NC1=O)C2', 9.00),
  ('COc1ccc2c(c1)C(=O)N(C[C@@]1(c3cc4cc(CNCC5CCNCC5)ccc4o3)NC(=O)NC1=O)C2', 8.99),
  ('CCC1(c2ccc3oc([C@]4(CN5Cc6ccc(OC)c(F)c6C5=O)NC(=O)NC4=O)cc3c2)NC(=O)NC1=O (stereo partly shown)', 9.09),
  ('COc1ccc2c(c1)C(=O)N(C[C@@]1(c3cc4cc(-c5ccc(O)cc5)ncc4o3)NC(=O)NC1=O)C2', 9.37),
  ('COc1ccc2c(c1F)C(=O)N(C[C@@]1(c3cc4ncc(C(=O)NC5CC5)cc4o3)NC(=O)NC1=O)C2', 8.94),
  ('COc1ccc2c(c1F)C(=O)N(C[C@@]1(c3cc4c(F)cnc(C)c4o3)NC(=O)NC1=O)C2', 8.92),
  ('COc1ccc2c(c1F)C(=O)N(C[C@@]1(c3cc4nc(-n5cccn5)ccc4o3)NC(=O)NC1=O)C2', 9.52),
  ('COc1ccc2c(c1)C(=O)N(C[C@@]1(c3cc4ccc(C(=O)N5CCNCC5)cc4o3)NC(=O)NC1=O)C2', 9.01),
  ('COc1ccc2c(c1)C(=O)N(C[C@@]1(c3cc4nc(-c5cccc(C#N)c5)ccc4o3)NC(=O)NC1=O)C2', 9.24),
  ('COc1ccc2c(c1)C(=O)N(C[C@@]1(c3ccc(C(N)=O)cc3)NC(=O)NC1=O)C2', 8.89),
  ('COc1ccc2c(c1F)C(=O)N(C[C@@]1(c3ccco3)NC(=O)NC1=O)C2', 9.13),
  ('COc1ccc2c(c1)C(=O)N(C[C@@]1(c3cc4nc(N5CCN(C(C)=O)CC5)ccc4o3)NC(=O)NC1=O)C2', 9.23),
  ('COc1ccc2c(c1F)C(=O)N(C[C@@]1(c3cc4nc(-c5cn[nH]c5)ccc4o3)NC(=O)NC1=O)C2', 9.58);

###

Target: purified catalytic domain of recombinant human TACE (rhTACEc) (Homo sapiens, UniProt P78536, N452Q/S266A)
Construct: 6xHis (C); made in house; host or cells: baculovirus/Hi5 insect cells
Assay: TACE kinetic assay: cleavage of internally quenched peptide substrate TNF-FRET 2 (Ki)
Format: biochemical
Conditions: Ki, TNF-FRET 2 substrate
pKi: −log10 of the molar value.
Criterion: pKi meeting or surpassing 9. Met: fulfilled. Not met: not fulfilled.

INSERT INTO measurements (compound, discrete_label) VALUES
  ('COc1ccc2c(c1F)C(=O)N(C[C@@]1(c3cc4cc(F)cnc4o3)NC(=O)NC1=O)C2 [Compound 2277]', 'fulfilled'),
  ('COc1ccc2c(c1)C(=O)N(C[C@@]1(c3cc4nc(N5CCC[C@@H](O)C5)ccc4o3)NC(=O)NC1=O)C2 [Compound 2170]', 'fulfilled'),
  ('COc1ccc2c(c1)C(=O)N(C[C@@]1(c3cc4c(N5CCNCC5)nccc4o3)NC(=O)NC1=O)C2 [Compound 2279]', 'not fulfilled'),
  ('COc1ccc2c(c1)C(=O)N(CC1(c3cc4cc(-c5cc(=O)[nH]c(N)n5)ccc4o3)NC(=O)NC1=O)C2 (stereo not shown) [Compound 2224]', 'fulfilled'),
  ('COc1ccc2c(c1)C(=O)N(C[C@@]1(c3cc4nc(-c5ccnc(N6CCNCC6)c5)ccc4o3)NC(=O)NC1=O)C2 [Compound 1720]', 'fulfilled'),
  ('COc1ccc2c(c1F)C(=O)N(C[C@@]1(c3cc4nc(C5=CCNCC5)c(F)cc4o3)NC(=O)NC1=O)C2 [Compound 1320]', 'fulfilled'),
  ('COc1ccc2c(c1)C(=O)N(C[C@@]1(c3cc4c(C)nc(O)c(C(=O)O)c4o3)NC(=O)NC1=O)C2 [Compound 2436]', 'not fulfilled'),
  ('COc1ccc2c(c1F)C(=O)N(C[C@@]1(c3cc4nc(Cl)c(F)cc4o3)NC(=O)NC1=O)C2 [Compound 1328]', 'fulfilled'),
  ('CCOC(=O)NCc1ccc2oc([C@]3(CN4Cc5ccc(OC)cc5C4=O)NC(=O)NC3=O)cc2c1 [Compound 2484]', 'fulfilled'),
  ('COc1ccc2c(c1)C(=O)N(C[C@@]1(c3cc4nc(-c5ccc(N)nc5)ccc4o3)NC(=O)NC1=O)C2 [Compound 2102]', 'fulfilled'),
  ('COc1ccc2c(c1)C(=O)N(C[C@@]1(c3cn4cccnc4n3)NC(=O)NC1=O)C2 [Compound 750]', 'not fulfilled');

###

Listed compounds paired with reported Ki
Biological target: purified catalytic domain of recombinant human TACE (rhTACEc) (Homo sapiens, UniProt P78536, N452Q/S266A)
Construct: 6xHis (C); made in house; host or cells: baculovirus/Hi5 insect cells
Test: TACE kinetic assay: cleavage of internally quenched peptide substrate TNF-FRET 2 (Ki)
Format: biochemical
Conditions: TNF-FRET 2 substrate, read-out: Ki
parameter: Ki (pM)

INSERT INTO assay_data (compound, readout_number) VALUES
  ('COc1ccc2c(c1)C(=O)N(C[C@@]1(c3cc4nc(C#N)ccc4o3)NC(=O)NC1=O)C2', 320),
  ('COc1ccc2c(c1F)C(=O)N(C[C@@]1(c3cc4nc(C5CCNCC5)c(F)cc4o3)NC(=O)NC1=O)C2', 80),
  ('COc1ccc2c(c1)C(=O)N(C[C@@]1(c3cc4nc(Nc5cncc(F)c5)ccc4o3)NC(=O)NC1=O)C2', 1320),
  ('COc1ccc2c(c1)C(=O)N(C[C@@]1(c3cc4nc(-c5cncnc5)ccc4o3)NC(=O)NC1=O)C2', 299),
  ('COc1ccc2c(c1)C(=O)N(C[C@@]1(c3cc4cc(S(=O)(=O)NCCN(C)C)ccc4o3)NC(=O)NC1=O)C2', 670),
  ('COc1ccc2c(c1)C(=O)N(C[C@@]1(c3cc4c(C)nc(C)cc4o3)NC(=O)NC1=O)C2', 530),
  ('COc1ccc2c(c1)C(=O)N(C[C@@]1(c3cc4cc(C(N)C(F)(F)F)ccc4o3)NC(=O)NC1=O)C2 (some centres unmarked)', 594),
  ('COc1ccc2c(c1)C(=O)N(C[C@@]1(c3cc4nc(N(CCO)CCN(C)C)ccc4o3)NC(=O)NC1=O)C2', 3960),
  ('COc1ccc2c(c1)C(=O)N(C[C@@]1(c3cc4nc(NC(=O)c5ccncc5)ccc4o3)NC(=O)NC1=O)C2', 1200),
  ('COc1ccc2c(c1)C(=O)N(C[C@@]1(c3cc4nc(N5CCC5=O)ccc4o3)NC(=O)NC1=O)C2', 955),
  ('COc1ccc2c(c1F)C(=O)N(C[C@@]1(c3cc4nc(N5CCCNCC5)ccc4o3)NC(=O)NC1=O)C2', 830),
  ('COc1ccc2c(c1)C(=O)N(C[C@@]1(c3cc4cc(CO)ccc4o3)NC(=O)NC1=O)C2', 546),
  ('COc1ccc2c(c1)C(=O)N(C[C@@]1(c3cc4c(o3)CCN(S(C)(=O)=O)C4)NC(=O)NC1=O)C2', 820),
  ('C#Cc1c(O)ccc2c1C(=O)N(C[C@@]1(c3cc4ncccc4o3)NC(=O)NC1=O)C2', 5800);

Attribution: patent US8569336B2
